- Target Or System: recombinant human HDAC-1 enzyme (rHDAC-1) (Homo sapiens, UniProt Q13547)
- Construct: made in house; host or cells: Baculovirus insect cell expression system
- Sequence (Q13547 whole entry): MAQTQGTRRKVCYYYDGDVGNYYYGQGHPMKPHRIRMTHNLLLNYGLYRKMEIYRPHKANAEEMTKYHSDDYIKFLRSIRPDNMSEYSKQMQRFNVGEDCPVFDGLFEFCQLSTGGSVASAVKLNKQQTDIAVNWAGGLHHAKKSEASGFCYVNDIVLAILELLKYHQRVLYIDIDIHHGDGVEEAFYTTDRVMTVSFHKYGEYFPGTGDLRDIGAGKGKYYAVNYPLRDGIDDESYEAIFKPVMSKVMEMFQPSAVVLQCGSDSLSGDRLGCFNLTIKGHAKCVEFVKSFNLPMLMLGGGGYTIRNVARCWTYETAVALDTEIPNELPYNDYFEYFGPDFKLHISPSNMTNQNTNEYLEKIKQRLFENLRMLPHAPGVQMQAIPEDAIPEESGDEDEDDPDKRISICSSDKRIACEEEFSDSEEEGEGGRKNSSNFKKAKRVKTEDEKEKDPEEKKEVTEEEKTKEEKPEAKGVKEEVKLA
- Method Notes: Histone deacetylase inhibition, recombinant human HDAC-1
- Format: biochemical
- Setup Conditions: cloned recombinant human HDAC-1, Baculovirus insect cell expression; read-out: rHDAC-1 IC50
pIC50: −log10 of the molar value.
Decide by pIC50: equal to or exceeding 6 means Condition met, less means Condition not met.

| Compound | Class |
| --- | --- |
| Nc1ccccc1NC(=O)CCCCCN1C(=O)c2cccc3c(CN4CCCCC4)c(O)cc(c23)C1=O [Compound 251c] | Condition not met |
| Nc1ccccc1NC(=O)CCCCCCC(=O)c1ccc(-c2ccccc2)cc1 [Compound 77] | Condition not met |
| O=C(CCCCCCC(=O)c1cccnc1)NO [Compound 141a1] | Condition met |
| O=C(CCCCCC(=O)c1cc2ccccc2[nH]1)NO [Compound 112] | Condition met |
| O=C(CCCCCNS(=O)(=O)c1ccccc1)NO [Compound 47] | Condition met |
| Nc1ccccc1NC(=O)CCCCCCC(=O)c1cc2ccccc2s1 [Compound 164] | Condition not met |
| CN(c1ccccc1)c1ccc(C(=O)CCCCCCC(=O)NO)cc1 [Compound 138b] | Condition met |
| O=C(CCCCCCC(=O)c1ccc(Nc2ccccc2)cc1)NO [Compound 138a] | Condition met |

Values were extracted from patent US7288567B2.
